All values here come from patent US10577363B2.

Hi there, I'd appreciate the recorded IC50 for every entry that follows.
# target.entity: SMYD3 (Homo sapiens (Human))
# protocol: SMYD3 biochemical assay (SPA, 3H-SAM methylation of MEKK2 protein substrate)
# condition.notes: read-out: SMYD3 Biochem IC50*
Give bare numbers, in nM.

For every listed record, write down its IC50.
1. COCCN[C@H]1CC[C@H](S(=O)(=O)N2[C@@H]3CC[C@H]2C[C@@H](NC(=O)c2cc(C4CC4)on2)C3)CC1 [compound 825]
2. N#Cc1ccc(CNC2CCN(S(=O)(=O)N3[C@@H]4CC[C@H]3C[C@@H](NC(=O)c3cc(C5CC5)on3)C4)CC2)cc1 [compound 938]

3.91
44.1

For every listed record, write down its IC50.
1. CC(C)CN1CCC(CS(=O)(=O)N2[C@@H]3CC[C@H]2C[C@@H](NC(=O)c2cc(C4CC4)on2)C3)CC1 [compound 809]
2. COCCNC1CCN(S(=O)(=O)N2CC[C@H](NC(=O)c3cc(C4CC4)on3)C[C@@H]2C)CC1 [compound 861]

1: 2.49; 2: 7.65

* * *

# target.entity: SMYD3 (Homo sapiens (Human), UniProt Q9H7B4)
# Sequence (Q9H7B4 whole entry): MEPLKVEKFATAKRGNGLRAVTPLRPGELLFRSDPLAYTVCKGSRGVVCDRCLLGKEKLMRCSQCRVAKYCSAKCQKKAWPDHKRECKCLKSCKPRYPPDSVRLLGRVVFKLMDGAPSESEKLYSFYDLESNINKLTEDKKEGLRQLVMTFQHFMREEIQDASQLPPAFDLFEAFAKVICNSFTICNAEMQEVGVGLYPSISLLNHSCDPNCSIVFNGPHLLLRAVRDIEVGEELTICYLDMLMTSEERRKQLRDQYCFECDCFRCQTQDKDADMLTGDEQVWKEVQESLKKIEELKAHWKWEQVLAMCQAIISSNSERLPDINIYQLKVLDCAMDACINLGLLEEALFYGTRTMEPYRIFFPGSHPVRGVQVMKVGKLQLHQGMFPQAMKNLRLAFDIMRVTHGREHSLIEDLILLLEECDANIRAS
# protocol: SMYD3 cell assay (Trimethyl-MEKK2 In-Cell Western in 293T/17 cells)
# Format: cell-based
# condition.notes: Table 2A; read-out: SMYD3 Cell IC50
quantity.kind: IC50 (µM)
Numbers only, in µM.

Some compounds with recorded IC50:
In [3]: df
Out[3]:
                                smiles_code  measurement
0  CC(C)CN1CCC(CS(=O)(=O)N2CC[C@@H](NC(=O)c3cc(C4CC4)on3)C[C@H]2C)CC1         1.03
1  C[C@H]1C[C@@H](NC(=O)c2cc(C3CC3)on2)CCN1S(=O)(=O)N1CCC(N(C)C)CC1       0.0399
2  C[C@H]1C[C@@H](NC(=O)c2cc(C3CC3)on2)CCN1S(=O)(=O)N1CCC(NCc2ccccc2)CC1        0.036
3  C[C@H]1C[C@@H](NC(=O)c2cc(C3CC3)on2)CCN1S(=O)(=O)CCCCN(C)C        0.106
4  C[C@@H]1CN(S(=O)(=O)N2CCNCC2)[C@H](C)C[C@@H]1NC(=O)c1cc(C2CC2)on1       0.0778
5  C[C@H]1CN(S(=O)(=O)N2CC[C@H](NC(=O)c3cc(C4CC4)on3)C[C@@H]2C)CCN1       0.0536

For every listed record, write down its IC50.
1. C[C@H]1C[C@@H](NC(=O)c2cc(C3CC3)on2)CCN1S(=O)(=O)CCCNCc1cccc(C(F)(F)F)c1
2. C[C@H]1CN(S(=O)(=O)CC2CCN(CCO)CC2)CC[C@H]1NC(=O)c1cc(C2CC2)on1

1. 0.451
2. 0.231

For every listed record, write down its IC50.
1. C[C@H]1C[C@@H](NC(=O)c2cc(C3CC3)on2)CCN1S(=O)(=O)N1CCNCC1
2. COCCN1CCC(CS(=O)(=O)N2CC[C@H](NC(=O)c3cc(C4CC4)on3)C[C@@H]2C)CC1
3. C[C@H]1C[C@@H](NC(=O)c2cc(C3CC3)on2)CCN1S(=O)(=O)N1CCCNCC1

1. 0.0719
2. 0.0704
3. 0.186

For every listed record, write down its IC50.
1. C[C@H]1C[C@@H](NC(=O)c2cc(C3CC3)on2)CCN1S(=O)(=O)N1CCC(N)CC1
2. COCCNCCCS(=O)(=O)N1[C@@H]2CC[C@H]1C[C@@H](NC(=O)c1cc(C3CC3)on1)C2
3. CN(CCN)CCCS(=O)(=O)N1[C@@H]2CC[C@H]1C[C@@H](NC(=O)c1cc(C3CC3)on1)C2
4. CNCCNCCCS(=O)(=O)N1[C@@H]2CC[C@H]1C[C@@H](NC(=O)c1cc(C3CC3)on1)C2
5. CC(C)CN1CCC(CS(=O)(=O)N2CC[C@H](NC(=O)c3cc(C4CC4)on3)C[C@@H]2C)CC1
6. O=C(N[C@H]1C[C@H]2CC[C@@H](C1)N2S(=O)(=O)CCCN1CCCC1)c1cc(C2CC2)on1

1: 0.0152; 2: 0.2; 3: 0.263; 4: 0.339; 5: 0.261; 6: 0.217

* * *

# target.entity: SMYD3 (Homo sapiens (Human), UniProt Q9H7B4)
# protocol: SMYD3 biochemical assay (SPA, 3H-SAM methylation of MEKK2 protein substrate)
# condition.notes: read-out: SMYD3 Biochem IC50 (μM)*
Hi there, I'd appreciate the recorded IC50 for every entry that follows.
Numbers only, in µM.

                                   molecule                             target_entity  measurement
0  N[C@H]1CC[C@H](C(=O)N2CC[C@@H](NC(=O)c3cc(C4CC4)on3)C[C@H]2CO)CC1  SMYD3 (Homo sapiens (Human), UniProt Q9H7B4)         4.04
1  O=C(NC1CCN(C(=O)CC2CCNCC2)CC1(F)F)c1cc(C2CC2)on1 (stereo not shown)  SMYD3 (Homo sapiens (Human), UniProt Q9H7B4)         1.56
2        NCCCN1CCC(NC(=O)c2cc(C3CC3)on2)CC1  SMYD3 (Homo sapiens (Human), UniProt Q9H7B4)         3.16
3  CC(C)CNc1ccc(S(=O)(=O)N2CC[C@H](NC(=O)c3cc(C4CC4)on3)C[C@@H]2C)cn1  SMYD3 (Homo sapiens (Human), UniProt Q9H7B4)          1.1
4  C[C@@H]1CN(C(=O)[C@H](N)Cc2ccc(O)cc2)CCC1NC(=O)c1cc(C2CC2)on1 (stereo partly shown)  SMYD3 (Homo sapiens (Human), UniProt Q9H7B4)         14.9
5  NCCCS(=O)(=O)N1CC[C@@H](NC(=O)c2cc(C3CC3)on2)C[C@H]1Cc1ccccc1  SMYD3 (Homo sapiens (Human), UniProt Q9H7B4)        0.464

For every listed record, write down its IC50.
1. NCCCC(=O)N1CC[C@H](NC(=O)c2cc(C3CC3)on2)C[C@H]1Cc1ccccc1
2. O=C(NC1CCN(C(=O)[C@@H](CO)Cc2ccccc2)CC1)c1cc(C2CC2)on1
3. C[C@@H](N)CC(=O)NC[C@H](Cc1ccc(O)c(I)c1)C(=O)N1CCC(NC(=O)c2cc(C3CC3)on2)CC1
4. C[C@H]1C[C@H](NC(=O)c2cc(C3CC3)on2)CCN1C(=O)c1ccc(C(C)(C)N)cc1
5. NCCCS(=O)(=O)N1CCC(NC(=O)c2cc(C3CC3)on2)C(c2ccccc2)C1 (stereo not shown)
6. C[C@H]1CN(C(=O)[C@H](N)Cc2ccc(O)cc2)CCC1NC(=O)c1cc(C2CC2)on1 (stereo partly shown)

1: 1.12; 2: 30.9; 3: 0.479; 4: 5.87; 5: 2.76; 6: 14.9

* * *

# target.entity: SMYD3 (Homo sapiens (Human), UniProt Q9H7B4)
# protocol: SMYD3 cell assay (Trimethyl-MEKK2 In-Cell Western in 293T/17 cells)
# Assay type: cell-based
# condition.notes: 293T/17 cells; read-out: SMYD3 Cell IC50 (μM)*
quantity.kind: IC50

Some molecules with recorded IC50:
In [3]: df
Out[3]:
                                   molecule                             target_entity  measurement
0  C[C@@H]1C[C@H](NC(=O)c2cc(C3CC3)on2)CCN1C(=O)CC(CN)c1ccccc1 (some centres unmarked)  SMYD3 (Homo sapiens (Human), UniProt Q9H7B4)      > 40 µM
1  CNc1ccc(S(=O)(=O)N2CC[C@@H](NC(=O)c3cc(C4CC4)on3)C[C@H]2C)cn1  SMYD3 (Homo sapiens (Human), UniProt Q9H7B4)      > 10 µM
2  O=C1Cc2cc(S(=O)(=O)N3[C@@H]4CC[C@H]3C[C@@H](NC(=O)c3cc(C5CC5)on3)C4)ccc2N1  SMYD3 (Homo sapiens (Human), UniProt Q9H7B4)      > 10 µM
3  NCCCC(=O)N1CC2CCC1CC2NC(=O)c1cc(C2CC2)on1 (centres unmarked)  SMYD3 (Homo sapiens (Human), UniProt Q9H7B4)      > 40 µM

Specify IC50 for `C[C@@H]1C[C@H](NC(=O)c2cc(C3CC3)on2)CCN1S(=O)(=O)c1ccc(N(C)CCN2CCOCC2)nc1` and stop.
> 10 µM

* * *

# target.entity: UniProtKB Q9H7B4
# protocol: SMYD3 biochemical assay (SPA, 3H-SAM methylation of MEKK2 protein substrate)
# condition.notes: read-out: SMYD3 Biochem IC50 (μM)*
Hi there, I'd appreciate the recorded IC50 for every entry that follows.
Give bare numbers, in µM.

Some compounds with recorded IC50:
>>> df
                                   compound     target_entity  quantity_kind  units_text  measurement
0  CC(C)CNc1ccc(S(=O)(=O)N2C3CCCC2CC(NC(=O)c2cc(C4CC4)on2)C3)cn1 (stereo not drawn)  UniProtKB Q9H7B4           IC50          µM         3.12
1  CC1(NC(=O)c2cc(C3CC3)on2)CCN(C(=O)CC2CCNCC2)CC1  UniProtKB Q9H7B4           IC50          µM        0.848
2  CC[C@@H]1CC(NC(=O)c2cc(C3CC3)on2)CCN1C(=O)[C@H]1CC[C@H](N)CC1 (stereo partly drawn)  UniProtKB Q9H7B4           IC50          µM       0.0994
3  N[C@H]1CC[C@H](C(=O)N2CCC(NC(=O)c3cc(C4CC4)on3)CC2)CC1  UniProtKB Q9H7B4           IC50          µM         1.29
4  C[C@@H]1CC(NC(=O)c2cc(C3CC3)on2)CCN1C(=O)C1(F)CCNCC1 (stereo partly drawn)  UniProtKB Q9H7B4           IC50          µM        0.677

For every listed record, write down its IC50.
1. C[C@H]1CC(NC(=O)c2cc(C3CC3)on2)CCN1C(=O)CC1CCCC(N)C1 (stereo partly drawn)
2. CC1(NC(=O)c2cc(C3CC3)on2)CCN(C(=O)CCCN)CC1
3. C[C@@H](N)C(=O)NC[C@H](Cc1ccc(O)c(I)c1)C(=O)N1CCC(NC(=O)c2cc(C3CC3)on2)CC1

[2.38, 7.34, 1.23]

For every listed record, write down its IC50.
1. C[C@H]1C[C@@H](NC(=O)c2cc(C3CC3)on2)CCN1S(=O)(=O)N(C)C
2. C[C@@H]1CC(NC(=O)c2cc(C3CC3)on2)CCN1C(=O)[C@H]1CC[C@H](N)CO1 (stereo partly drawn)
3. C[C@H]1C[C@H](NC(=O)c2cc(C3CC3)on2)CCN1S(=O)(=O)c1ccccc1
4. C[C@H]1C[C@@H](NC(=O)c2cc(C3CC3)on2)CCN1S(=O)(=O)CCc1ccccc1

1. 1.33
2. 0.208
3. 3.35
4. 1.33
